# tested system: 5-hydroxytryptamine receptor 1B (Homo sapiens, UniProt P28222)
# Sequence (P28222 whole entry): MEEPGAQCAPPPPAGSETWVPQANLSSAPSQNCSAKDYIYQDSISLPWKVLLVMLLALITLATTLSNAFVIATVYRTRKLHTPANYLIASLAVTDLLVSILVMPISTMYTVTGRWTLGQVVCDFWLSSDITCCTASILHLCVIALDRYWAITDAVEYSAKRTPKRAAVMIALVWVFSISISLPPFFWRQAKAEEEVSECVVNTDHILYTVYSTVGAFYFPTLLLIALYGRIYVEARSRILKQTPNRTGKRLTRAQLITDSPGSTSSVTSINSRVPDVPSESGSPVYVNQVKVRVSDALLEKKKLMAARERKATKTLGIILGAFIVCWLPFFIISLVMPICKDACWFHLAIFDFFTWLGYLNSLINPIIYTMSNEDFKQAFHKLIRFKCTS
pKi: −log10 of the molar value.
reported metric: pKi

Please review the following examples before continuing.
Cl.O=C(Nc1ccc2[nH]nc(S(=O)(=O)c3cccc4ccccc34)c2c1)C1CCNCC1 ... < 5.30
Cl.O=S(=O)(c1ccc2ccccc2c1)c1n[nH]c2ccc(NC3CCNCC3)cc12 ... < 5.30

Input line: Short answer please: pKi, 5-hydroxytryptamine receptor 1B (Homo sapiens, UniProt P28222), entry Cl.O=S(=O)(c1cccc2ccccc12)c1n[nH]c2ccc(NC3CCNCC3)cc12
Output line: < 5.30
